System: HCV replicon (HCV 1b-377-neo replicon cells)
Experiment: HCV replicon cell line FRET assay
Format: cell-based
Conditions: Hepatitis C virus; HCV replicon cell line, FRET assay; read-out: Replicon Inhibition Range EC50
pEC50: −log10 of the molar value.
OUTCOME MEASURE: pEC50

MOLECULE: Cc1cc(F)ccc1/N=C1\SC(c2ccc(NC(=O)[C@@H]3CCCN3C(=O)OCc3ccccc3)cc2)C(=O)N1Cc1ccco1 (stereo partly shown) [Compound 57]
RESULT: 5.30 to 6.00
//
MOLECULE: C[C@H](C(=O)N1CCC[C@H]1C(=O)Nc1ccc(C2S/C(=N\c3ccc(N4CCOCC4)cc3)N(Cc3ccccn3)C2=O)cc1)c1ccccc1 (stereo partly shown) [Compound 114]
RESULT: > 7.00
//
MOLECULE: CC(C)(C)/N=C1\SC(c2ccc(NC(=O)[C@@H]3CCCN3C(=O)OCc3ccccc3)cc2)C(=O)N1Cc1ccccn1 (stereo partly shown) [Compound 89]
RESULT: 6.00 to 7.00
//
MOLECULE: Cc1cnc(CN2C(=O)C(c3ccc(NC(=O)[C@@H]4CCCN4C(=O)OCc4ccccc4)cc3)S/C2=N\c2cccc(F)c2)cn1 (stereo partly shown) [Compound 5]
RESULT: > 7.00
//
MOLECULE: C[C@H](NC(=O)Nc1ccccc1)C(=O)Nc1ccc(C2S/C(=N\c3cccc(F)c3)N(Cc3ccco3)C2=O)cc1 (stereo partly shown) [Compound 134]
RESULT: 5.30 to 6.00
//
MOLECULE: O=C(Nc1ccc(C2S/C(=N\c3cccc(F)c3)N(Cc3ccc(OC(F)(F)F)cc3)C2=O)cc1)[C@@H]1CCCN1C(=O)OCc1ccccc1 (stereo partly shown) [Compound 19]
RESULT: 5.30 to 6.00
//
MOLECULE: CN=C1SC(c2ccc(NC(=O)[C@@H]3CCCN3C(=O)OCc3ccccc3)cc2)C(=O)N1Cc1ccccn1 (stereo partly shown) [Compound 85]
RESULT: > 7.00
//
MOLECULE: O=C(Nc1ccc(C2S/C(=N\c3cccc(OC(F)(F)F)c3)N(Cc3ccco3)C2=O)cc1)[C@@H]1CCCN1C(=O)OCc1ccccc1 (stereo partly shown) [Compound 55]
RESULT: 6.00 to 7.00
//
MOLECULE: CN(C)c1ccc(CC(=O)N2CCC[C@H]2C(=O)Nc2ccc(C3S/C(=N\c4ccc(N5CCOCC5)cc4)N(Cc4ccccn4)C3=O)cc2)cc1 (stereo partly shown) [Compound 103]
RESULT: 6.00 to 7.00
//
MOLECULE: C[C@H](NC(=O)OCc1ccccc1)C(=O)Nc1ccc(C2S/C(=N\c3ccc4c(c3)CCC4)N(Cc3ccco3)C2=O)cc1 (stereo partly shown) [Compound 39]
RESULT: 5.30 to 6.00
//
MOLECULE: C[C@H](NC(=O)OCc1ccccc1)C(=O)Nc1ccc(C2S/C(=N\c3ccc(F)c(Cl)c3)N(Cc3ccco3)C2=O)cc1 (stereo partly shown) [Compound 52]
RESULT: 5.30 to 6.00
//
MOLECULE: O=C(Nc1ccc(C2S/C(=N\c3ccc(F)c(Cl)c3)N(Cc3ccco3)C2=O)cc1)[C@@H]1CCCN1C(=O)OCc1ccccc1 (stereo partly shown) [Compound 51]
RESULT: 5.30 to 6.00
//
MOLECULE: O=C(Nc1ccc(C2S/C(=N\c3ccc(N4CCOCC4)cc3)N(Cc3ccccn3)C2=O)cc1)[C@@H]1CCCN1C(=O)C1(c2ccccc2)CC1 (stereo partly shown) [Compound 118]
RESULT: > 7.00
